These measurements were taken from the kinase profiling compilation of Christmann-Franck et al. (2016).

molecular target: STK3 (human) (UniProt Q13188); assay: radiometric filter-binding kinase assay, Kinase HotSpot; details: compound 0.5 µM; ATP 10 µM
Sequence (Q13188 whole entry, looked up): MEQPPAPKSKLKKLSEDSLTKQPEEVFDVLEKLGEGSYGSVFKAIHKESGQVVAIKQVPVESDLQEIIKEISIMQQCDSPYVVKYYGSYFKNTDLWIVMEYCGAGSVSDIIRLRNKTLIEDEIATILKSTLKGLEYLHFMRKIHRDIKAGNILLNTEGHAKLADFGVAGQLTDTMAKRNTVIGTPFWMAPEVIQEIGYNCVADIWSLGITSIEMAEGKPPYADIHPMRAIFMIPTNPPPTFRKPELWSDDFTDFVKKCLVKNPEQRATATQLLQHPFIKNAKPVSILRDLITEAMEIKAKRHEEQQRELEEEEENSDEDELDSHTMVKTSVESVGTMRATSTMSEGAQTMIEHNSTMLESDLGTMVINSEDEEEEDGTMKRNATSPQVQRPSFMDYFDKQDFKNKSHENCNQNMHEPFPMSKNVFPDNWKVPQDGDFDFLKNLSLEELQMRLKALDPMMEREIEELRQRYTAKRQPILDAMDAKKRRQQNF

>  <Chemical Smiles>
Cn1c2ccccc2c2c3c(c4c5ccccc5n(CCC#N)c4c21)CNC3=O

>  <residual activity [%]>
3.07

$$$$
>  <Chemical Smiles>
COc1cc2ncnc(Nc3ccc(OCc4ccccc4)cc3)c2cc1OC

>  <residual activity [%]>
97.6

$$$$
>  <Chemical Smiles>
N#Cc1c[nH]c2c[nH]/c(=N\Cc3cccnc3)cc2/c1=N\c1ccc(F)c(Cl)c1

>  <residual activity [%]>
94.3

$$$$
>  <Chemical Smiles>
Ic1cccc(CSc2nnc(-c3ccncc3)o2)c1

>  <residual activity [%]>
110

$$$$
>  <Chemical Smiles>
CN(C)c1ccc(/C=C2\C(=O)Nc3ccccc32)cc1

>  <residual activity [%]>
100

$$$$
>  <Chemical Smiles>
O=C(c1cc2cc(O)ccc2[nH]1)c1cc2cc(O)ccc2[nH]1

>  <residual activity [%]>
41.4

$$$$
>  <Chemical Smiles>
COc1ccc2c(c1)/C(=C/c1cnc[nH]1)C(O)=N2

>  <residual activity [%]>
12.2

$$$$
>  <Chemical Smiles>
CS(=O)(=O)CCNCc1ccc(-c2ccc3ncnc(Nc4ccc(OCc5cccc(F)c5)c(Cl)c4)c3c2)o1

>  <residual activity [%]>
93.7

$$$$
>  <Chemical Smiles>
CCCCc1c(-c2ccc(OC)cc2)[nH]c2nccnc12

>  <residual activity [%]>
87

$$$$
>  <Chemical Smiles>
CN(C)CCCn1cc(C2=C(c3c[nH]c4ccccc34)C(=O)NC2=O)c2ccccc21

>  <residual activity [%]>
44.2

$$$$
>  <Chemical Smiles>
c1ccc2c(-c3ccncc3)c[nH]c2c1

>  <residual activity [%]>
112

$$$$
